B1: Membrane-associated guanylate kinase, WW and PDZ domain-containing protein 2, residues 601 to 682; numbered along this chain, Q86UL8 (parent)
chain: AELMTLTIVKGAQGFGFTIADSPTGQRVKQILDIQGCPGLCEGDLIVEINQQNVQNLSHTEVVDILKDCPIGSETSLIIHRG

Variants of: B1
Assay: abundance fitness (aPCA) (normalised: wild type 0, dead -1); higher = more abundant; growth selection in yeast, the domain comes from the species named
Conditions: Homo sapiens
Label rule, in plain words: abundance fitness of -0.02 and up is t, under -0.02 is f.

Use these answered entries as a reference point.
variant_key=S22V label=f
variant_key=C41W label=f
variant_key=D21S label=f
variant_key=Q51D label=f
variant_key=D68E label=f
variant_key=Q51N label=t
variant_key=C41A label=t
variant_key=G25C label=f

Prompt: Reported abundance fitness reaches at least -0.02 for C41G ?
Completion: f

Prompt: Reported abundance fitness reaches at least -0.02 for K29Q ?
Completion: f

Prompt: Reported abundance fitness reaches at least -0.02 for Q35A ?
Completion: t

Prompt: Reported abundance fitness reaches at least -0.02 for S22R ?
Completion: t

Prompt: Reported abundance fitness reaches at least -0.02 for G25M ?
Completion: f

Prompt: Reported abundance fitness reaches at least -0.02 for C37W ?
Completion: f

Prompt: Reported abundance fitness reaches at least -0.02 for S76Y ?
Completion: t

Prompt: Reported abundance fitness reaches at least -0.02 for C41P ?
Completion: f

Prompt: Reported abundance fitness reaches at least -0.02 for E61C ?
Completion: f

Prompt: Reported abundance fitness reaches at least -0.02 for T18M ?
Completion: f

Prompt: Reported abundance fitness reaches at least -0.02 for I31R ?
Completion: f

Prompt: Reported abundance fitness reaches at least -0.02 for E74T ?
Completion: f

Prompt: Reported abundance fitness reaches at least -0.02 for H80D ?
Completion: t

Prompt: Reported abundance fitness reaches at least -0.02 for Q35P ?
Completion: f
